molecular target: human TLR7 (Homo sapiens, UniProt Q9NYK1); experiment: HEK293-Blue-hTLR-7 cells assay (SEAP reporter); type: cell-based; settings: EC50 of prodrug over EC50 of corresponding active form
Ratio (EC50(prodrug)/EC50(active form)) below 70 gives NOT MET; Ratio (EC50(prodrug)/EC50(active form)) at or above it gives MET.

Compound	Target Of Assay	Qualitative Label
CCCN(C)C(=O)n1c(=O)n(Cc2ccc(C)cc2)c2nc([S@@](=N)(=O)CC)nc(N)c21 (single isomer, unassigned)	human TLR7 (Homo sapiens, UniProt Q9NYK1)	MET
CCCS(=N)(=O)c1nc(N)c2c(n1)n(Cc1ccccc1)c(=O)n2C(=O)N(C)CCN(C)C(=O)OCC (centres unmarked)	human TLR7 (Homo sapiens, UniProt Q9NYK1)	MET
CCCS(=N)(=O)c1nc(N)c2c(n1)n(Cc1ccccc1)c(=O)n2C(=O)N(CCOC)CCOC (centres unmarked)	human TLR7 (Homo sapiens, UniProt Q9NYK1)	NOT MET
CCCCN(CC)C(=O)n1c(=O)n(Cc2ccccc2)c2nc(S(=N)(=O)CCC)nc(N)c21 (centres unmarked)	human TLR7 (Homo sapiens, UniProt Q9NYK1)	MET
CCCS(=N)(=O)c1nc(N)c2c(n1)n(Cc1ccccc1)c(=O)n2C(=O)N(C)CCOC (single isomer, unassigned) [Example 2-B]	human TLR7 (Homo sapiens, UniProt Q9NYK1)	NOT MET

====

assay: Single dose PK study in male Wister-Han rats; type: in vivo; settings: male, Wister-Han, rat, plasma, po, 5 mg/kg, 5 mg/kg oral dosing of active form, 0.25 h
Each entry below carries its recorded concentration at 0.25 h.
Property Label: concentration at 0.25 h (nM)

Compound	Measured Number
CCS(=O)(=O)c1nc(N)c2[nH]c(=O)n(Cc3ccc(Cl)cc3)c2n1 [Example S-2, reference compound]	9.49
CCCCOc1nc(N)c2c(n1)N(Cc1cccc(CN3CCCC3)c1)CC(=O)N2 [GS9620, reference compound]	56.3
CC[S@@](=N)(=O)c1nc(N)c2[nH]c(=O)n(Cc3ccc(Cl)cc3)c2n1 (single isomer, unassigned) [Compound 41c-B]	3.41
CC[S@](=N)(=O)c1nc(N)c2[nH]c(=O)n(Cc3ccc(Cl)cc3)c2n1 (single isomer, unassigned) [Compound 41c-A]	16.8
CCS(=O)(=O)c1nc(N)c2[nH]c(=O)n(Cc3ccc(C)cc3)c2n1 [Example S-3, reference compound]	8.89
CCS(=N)(=O)c1nc(N)c2[nH]c(=O)n(Cc3ccc(F)cc3)c2n1 (single isomer, unassigned) [Compound 45e-A]	64.6
CC[S@@](=N)(=O)c1nc(N)c2[nH]c(=O)n(Cc3ccc(C)cc3)c2n1 (single isomer, unassigned) [Compound 43e-A]	12.6

====

Target: UniProt Q9NYK1
Sequence (Q9NYK1 27-1049): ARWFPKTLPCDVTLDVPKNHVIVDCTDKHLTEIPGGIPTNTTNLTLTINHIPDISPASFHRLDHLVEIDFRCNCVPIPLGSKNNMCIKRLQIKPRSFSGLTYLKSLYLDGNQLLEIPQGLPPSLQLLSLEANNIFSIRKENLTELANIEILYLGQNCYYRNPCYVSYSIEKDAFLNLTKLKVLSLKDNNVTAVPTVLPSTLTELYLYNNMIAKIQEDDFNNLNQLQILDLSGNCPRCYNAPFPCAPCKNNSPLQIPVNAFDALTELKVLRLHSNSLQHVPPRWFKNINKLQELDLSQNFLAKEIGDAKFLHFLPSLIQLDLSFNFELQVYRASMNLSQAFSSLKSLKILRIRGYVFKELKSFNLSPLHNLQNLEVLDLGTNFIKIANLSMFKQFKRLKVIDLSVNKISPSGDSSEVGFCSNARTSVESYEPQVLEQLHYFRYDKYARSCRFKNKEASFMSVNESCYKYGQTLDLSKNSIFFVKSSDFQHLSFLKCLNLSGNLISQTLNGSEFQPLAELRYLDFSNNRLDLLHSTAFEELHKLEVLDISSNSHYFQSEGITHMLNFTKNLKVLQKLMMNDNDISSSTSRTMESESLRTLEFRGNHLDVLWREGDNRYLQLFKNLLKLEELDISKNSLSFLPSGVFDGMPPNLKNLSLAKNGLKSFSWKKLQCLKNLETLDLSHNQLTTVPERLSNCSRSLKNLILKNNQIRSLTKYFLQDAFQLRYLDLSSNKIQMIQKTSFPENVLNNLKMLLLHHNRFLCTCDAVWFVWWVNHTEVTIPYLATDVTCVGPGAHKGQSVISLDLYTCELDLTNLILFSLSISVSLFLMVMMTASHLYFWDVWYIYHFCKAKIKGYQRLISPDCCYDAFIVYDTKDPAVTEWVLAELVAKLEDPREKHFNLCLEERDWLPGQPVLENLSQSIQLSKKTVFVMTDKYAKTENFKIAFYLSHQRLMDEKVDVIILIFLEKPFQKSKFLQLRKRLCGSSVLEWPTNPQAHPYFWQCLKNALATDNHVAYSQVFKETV
Assay: HEK293-Blue-hTLR-7 cells assay (SEAP reporter)
Format: cell-based
Conditions: EC50 of prodrug over EC50 of corresponding active form
Each entry below carries its recorded Ratio (EC50(prodrug)/EC50(active form)).

Compound	Ratio (EC50(prodrug)/EC50(active form))
CCCS(=N)(=O)c1nc(N)c2c(n1)n(Cc1ccc(C)cc1)c(=O)n2C(=O)N(C)CC (stereo not shown)	159.3
CCCS(=N)(=O)c1nc(N)c2c(n1)n(Cc1ccccc1)c(=O)n2C(=O)N1CCC(N2CCCCC2)CC1 (stereo not shown)	353.8
CCCN(C)C(=O)n1c(=O)n(Cc2ccc(C)cc2)c2nc([S@](=N)(=O)CC)nc(N)c21	1000
CCCN(C)C(=O)n1c(=O)n(Cc2ccccc2)c2nc(S(=N)(=O)CCC)nc(N)c21 (single isomer, unassigned) [Example 1-A]	634.3
CCN(C)C(=O)n1c(=O)n(Cc2ccc(Cl)cc2)c2nc([S@@](=N)(=O)CC)nc(N)c21 [Example 42-A]	570.4
CCCN(C)C(=O)n1c(=O)n(Cc2ccccc2)c2nc(S(=N)(=O)CCC)nc(N)c21 (stereo not shown) [Example 1]	775.4
CCCS(=N)(=O)c1nc(N)c2c(n1)n(Cc1ccccc1)c(=O)n2C(=O)N(C)CC(=O)OCC (stereo not shown)	36.9
